Field: EC50 (ng/ml), ADCC on ASC1 cells. Provide a value for each of the binders that follow.
- target or system: T1, AMHRII receptor expressed on cells (cov434-AMHRII, Asc 1, META 2815) (human, UniProt Q16671 18-573)
- T1 sequence (looked up): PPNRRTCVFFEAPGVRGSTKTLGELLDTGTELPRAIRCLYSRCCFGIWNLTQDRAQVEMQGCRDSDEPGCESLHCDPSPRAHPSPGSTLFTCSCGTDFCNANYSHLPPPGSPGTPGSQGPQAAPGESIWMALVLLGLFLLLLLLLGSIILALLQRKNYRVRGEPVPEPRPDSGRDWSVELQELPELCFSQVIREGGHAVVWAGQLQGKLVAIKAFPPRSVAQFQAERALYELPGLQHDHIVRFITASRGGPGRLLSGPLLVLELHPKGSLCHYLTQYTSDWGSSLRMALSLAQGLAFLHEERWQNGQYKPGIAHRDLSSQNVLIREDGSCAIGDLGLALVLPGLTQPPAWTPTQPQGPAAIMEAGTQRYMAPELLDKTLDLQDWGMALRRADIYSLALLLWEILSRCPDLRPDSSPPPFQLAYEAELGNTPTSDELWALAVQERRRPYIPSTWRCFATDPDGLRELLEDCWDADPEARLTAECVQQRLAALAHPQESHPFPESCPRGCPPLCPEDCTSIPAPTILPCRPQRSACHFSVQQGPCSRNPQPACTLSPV
- test details: cell-based or functional assay
Just the number in ng/mL, nothing appended.

Q: Need EC50 (ng/ml), ADCC on ASC1 cells, item unmutated humanized 12G4 monoclonal antibody (antibody, human IgG1, kappa, V domains shown, Variable regions without leader joined to the constant regions; also called huLFB112; 632 07 107 Anti AMHRII hum 1st) VH: QVQLVQSGAEVKKPGASVKVSCKASGYTFTSYHIHWVRQAPGQRLEWMGWIYPGDDSTKYSQKFQGRVTITRDTSASTAYMELSSLRSEDTAVYYCTRGDRFAYWGQGTLVTVSS VL: DIQMTQSPSTLSASVGDRVTITCRASSSVRYIAWYQQKPGKAPKLLIYSTSSLESGVPSRFSGSGSGTEFTLTISSLQPDDFATYYCLQWSSYPWTFGGGTKVEIKR
Result: 52.4

Q: EC50 (ng/ml), ADCC on ASC1 cells for mutated humanized 12G4 antibody 6B-78 produced in YB2/0 (antibody, human IgG1, kappa, V domains shown, Chains without leader; Mutation VL-E184K; also called 6B_78 YB2/0; R901 6B78) VH: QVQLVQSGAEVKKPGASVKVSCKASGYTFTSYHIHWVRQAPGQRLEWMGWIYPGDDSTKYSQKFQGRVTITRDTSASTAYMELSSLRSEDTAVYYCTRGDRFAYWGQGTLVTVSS VL: DIQMTQSPSTLSASVGDRVTITCRASSSVRYIAWYQQKPGKAPKLLIYSTSSLKSGVPSRFSGSGSGTEFTLTISSLQPDDFATYYCLQWSSYPWTFGGGTKVEIKR ?
Result: 5.38

Q: # get_value(readout='EC50 (ng/ml), ADCC on ASC1 cells', item= mutated humanized 12G4 antibody 3C-23K produced in YB2/0 (antibody, human IgG1, kappa, V domains shown, Chains without leader; also called 3C_23K YB2/0; 3C-23K-YB2/0) VH: QVRLVQSGAEVKKPGASVKVSCKASGYTFTSYHIHWVRQAPGQRLEWMGWIYPGDDSTKYSQKFQGRVTITRDTSASTAYMELSSLRSEDTAVYYCTRGDRFAYWGQGTLVTVSS VL: DIQMTQSPSTLSASVGDRVTITCRASSSVRYIAWYQQKPGKAPKLLTYPTSSLKSGVPSRFSGSGSGTEFTLTISSLQPDDFATYYCLQWSSYPWTFGGGTKVEIKR )
Result: 1.7

Q: Param item = mutated humanized 12G4 antibody 3C-23 produced in YB2/0 (antibody, human IgG1, kappa, V domains shown, Chains without leader; Mutations VH-Q3R, VL-I177T/S179P; also called 3C_23 YB2/0; R901 3C23) VH: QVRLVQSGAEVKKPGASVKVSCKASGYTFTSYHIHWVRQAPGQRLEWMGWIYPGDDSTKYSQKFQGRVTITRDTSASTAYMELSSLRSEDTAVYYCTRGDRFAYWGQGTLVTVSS VL: DIQMTQSPSTLSASVGDRVTITCRASSSVRYIAWYQQKPGKAPKLLTYPTSSLESGVPSRFSGSGSGTEFTLTISSLQPDDFATYYCLQWSSYPWTFGGGTKVEIKR ; retrieve measured EC50 (ng/ml), ADCC on ASC1 cells.
Result: 6.3
